test: PhoP-dependent GFP reporter repression – Salmonella Typhimurium, primary screen (AID 1863);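 note: 0% = low Mg2+ inducing control and 100% = high Mg2+ repressing control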; settings: S. Typhimurium PhoP-regulated promoter GFP reporter, 4 h; at 50 µM; active compounds read high
Among all 300,000 compounds or so, about 480 (0.16%) were called active. These entries were drawn from the full list. Measured potencies and affinities stand elsewhere.
Task for the reader: assign each of the following molecules its reported inhibition.
Respond with the bare value in %.

Asked: Specify reported inhibition for the molecule shown: COc1ccccc1N1CCN(CC(=O)c2c(C)[nH]c3cc(C)ccc23)CC1
Given back: -0.55

Asked: State its inhibition for this molecule: CCN(CC)C(=O)Oc1nnc(SC(C)C)n1-c1ccc(Cl)cc1
Given back: -0.67

Asked: Look up and report measured inhibition for this entry: O=C(Cn1c(C(=O)O)cc2ccccc21)c1ccccc1
Given back: -2.79

Asked: Annotate the molecule CCOc1ccccc1N1CCN(CC(=O)Nc2ncc(C)s2)CC1 with its measured inhibition.
Given back: -2.9

Asked: Answer with the recorded inhibition for the molecule listed here: COc1ccc(/C=C2/SC(=O)N(CCC(=O)Nc3ccc(C)cc3)C2=O)cc1OC
Given back: 1.5

Asked: Specify inhibition for CCOC(=O)C(=O)Nc1ccccc1C(=O)OCC and stop.
Given back: 9.09

Asked: Supply inhibition value. Item: N#Cc1ccccc1CSCCNC(=O)Cc1c(F)cccc1Cl
Given back: -5.66

Asked: Supply measured inhibition of CC(C)CCNC(=O)C1(c2cccs2)CCOCC1 in your reply.
Given back: -3.36

Asked: Let me know recorded inhibition for CCn1cc(C(=O)NCCC(C)C)c(=O)c2cc(F)c(N3CCN(C)CC3)cc21 , thanks.
Given back: 8.97

Asked: Look up and report measured inhibition for this entry: COc1cccc(N/C(N)=N/c2nc(C(F)(F)F)cc(C(F)(F)F)n2)c1
Given back: -1.8

Asked: Determine from records and report inhibition for COc1cc(/C=C/C(=O)N(C)c2ccccc2C(=O)O)cc(OC)c1OC
Given back: -9.48

###

experiment: PhoP-dependent GFP reporter repression – Salmonella Typhimurium, primary screen (AID 1863);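 note: 0% = low Mg2+ inducing control and 100% = high Mg2+ repressing control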; settings: S. Typhimurium PhoP-regulated promoter GFP reporter, 4 h; at 50 µM; active compounds read high
Hit rate of the full screen: of about 300,000 compounds, about 480 (0.16%) were called active. Not all results are given here. Measured potencies and affinities stand elsewhere.
MEASURE: inhibition

Asked: Respond only with inhibition recorded for O=C(CSc1nc2ccccc2s1)N/N=C/c1ccccc1C(=O)O
Given back: -5.31% (inactive)

Asked: Supply recorded inhibition for COc1ccc(CCNC(=O)C(C(=O)c2ccc(F)cc2)n2ccccc2=O)cc1OC (stereo not drawn) here.
Given back: 7.45% (inactive)

Asked: Read off the recorded inhibition for Cc1cc(C(=O)N/N=C/c2ccc(C)s2)n[nH]1
Given back: 11.3% (inactive)

Asked: Identify the reported inhibition for the following entry. CN1CCc2c(sc(NC(=O)c3ccco3)c2C(N)=O)C1
Given back: -4.37% (inactive)

Asked: Give inhibition for CCn1cc(C(=O)N[C@H](C)c2ccccc2)c(=O)c2cc(F)c(N3CCN(C)CC3)cc21
Given back: 4.39% (inactive)

Asked: Let me know recorded inhibition for Cc1cc(Cl)ccc1NC(=O)CCC(=O)N/N=C/c1cc([N+](=O)[O-])ccc1O , thanks.
Given back: 12.1% (inactive)

Asked: Please supply the value of reported inhibition for the item CN(C)S(=O)(=O)c1ccc(C(=O)NCc2ccccc2)cc1
Given back: 5.29% (inactive)

Asked: // Input: O=[N+]([O-])c1cccc(/C=N/Nc2ccccn2)c1 . Output its inhibition only.
Given back: -2.55% (inactive)

Asked: Could you please provide reported inhibition for Cc1cc(C)nc(/N=C(\N)N(Cc2ccccc2)Cc2ccccc2)n1 ? Thanks!
Given back: -3.9% (inactive)

Asked: Write down inhibition measured for item Oc1ccc(CN2CCCCC2)c2cccnc12
Given back: 8.92% (inactive)

Asked: Consider the molecule CC(C)[C@@H](COc1ccccc1)N1CCN(Cc2ccccc2)CCC1=O and give its recorded inhibition.
Given back: 11.4% (inactive)

Asked: Kindly indicate its recorded inhibition. Item: Cc1nc(SC(C(=O)c2ccccc2)c2ccccc2)nc2ccccc12 (stereo not drawn)
Given back: 5.08% (inactive)

Asked: Quote inhibition reported for NC(=O)c1c(NC(=O)c2ccc([N+](=O)[O-])o2)sc2c1CCCC2 please.
Given back: -3.86% (inactive)

Asked: Tell us which inhibition value is on record for O=S(=O)(/N=C(/NNS(=O)(=O)c1ccccc1)c1ccccc1)c1ccccc1
Given back: -3.53% (inactive)

Asked: Check the records and state inhibition for O=C(Nc1nnc(-c2cccs2)o1)c1cccc(C(F)(F)F)c1
Given back: -1.86% (inactive)

Asked: Tell us which inhibition value is on record for O=C(CSc1nc2ccccc2s1)NCc1cc([N+](=O)[O-])ccc1O
Given back: -4.94% (inactive)

Asked: In one line, give reported inhibition of the entry Cc1ccc2oc(=O)c(/C=C(\O)C(C)(C)C)nc2c1 .
Given back: -0.34% (inactive)

Asked: For COc1cc([N+](=O)[O-])cc(/C=N/NC(=O)CSc2ccccn2)c1O , write its inhibition.
Given back: 24.8% (inactive)

Asked: Please look at this molecule and report its inhibition: O=[N+]([O-])c1cccc(-c2ccn[nH]2)c1
Given back: -3.87% (inactive)

Asked: Write down inhibition measured for item CC(C)CCNC(=O)NC(=O)COC(=O)CCN=C1NS(=O)(=O)c2ccccc21
Given back: -10.2% (inactive)

Asked: Tell me inhibition reported for CC1CCc2c(nc3ncnn3c2N2CC(C)OC(C)C2)C1 (stereo not drawn)
Given back: -10.6% (inactive)

Asked: Fill in inhibition for record O=c1[nH]cc(O)c(=O)[nH]1
Given back: 6.24% (inactive)

Asked: State its inhibition for this molecule: Cn1c(CSc2nc3ccccc3s2)nnc1SCC(=O)NCc1ccccn1
Given back: -6.01% (inactive)

###

assay: PhoP-dependent GFP reporter repression – Salmonella Typhimurium, primary screen (AID 1863);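 note: 0% = low Mg2+ inducing control and 100% = high Mg2+ repressing control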; details: S. Typhimurium PhoP-regulated promoter GFP reporter, 4 h; at 50 µM; active compounds read high
Screen size: about 300,000 compounds; about 480 (0.16%) were called active. These entries were drawn from the full list. Potency and affinity values are given separately.
MEASURE: inhibition (%)
Hi! Could you send only the number? It should be in %, unit omitted.

Asked: Provide only the value of recorded inhibition for COc1cc2nc(Nc3ccc(C)c(Cl)c3)nc(N)c2cc1OC
Given back: -5.89

Asked: Indicate the recorded inhibition value for this compound: CN(C)c1ccc(/C=C/c2ccc3ccccc3n2)cc1
Given back: 0.11

Asked: Read the entry CC[n+]1c(/C=C/c2ccc(OC)c(OC)c2)ccc2ccccc21 and write its reported inhibition.
Given back: -6.54

Asked: Report inhibition, nothing else, for this compound: CCn1cc(C(=O)O)c(=O)c2cc(F)c(N3CCN(C(=S)NC(=O)c4ccccc4Br)CC3)cc21
Given back: 8.64

Asked: Output measured inhibition for this item: CCn1cc(C(=O)O)c(=O)c2cc(F)c(N3CCN(S(=O)(=O)c4ccc(NC(=O)OC)cc4)CC3)cc21
Given back: -9.02

Asked: Answer with the recorded inhibition for the compound listed here: C=CCNC(=O)c1cn(CC)c2cc(N3CCN(C(=O)c4ccco4)CC3)c(F)cc2c1=O
Given back: 5.05

Asked: Give recorded inhibition. CCn1cc(C(=O)NCCc2ccccc2)c(=O)c2cc(F)c(N3CCN(C)CC3)cc21
Given back: -0.827

Asked: Determine from records and report inhibition for CCOc1ccc(Br)cc1CSC(=N)N
Given back: 26.3

Asked: For the compound CCn1cc(S(=O)(=O)c2ccc(OC)cc2)c(=O)c2cc(F)c(N3CCN(C)CC3)cc21 , give its measured inhibition value.
Given back: -6.69

Asked: Please give the documented inhibition of O=C1NN(c2ccccc2)C(=O)/C1=C/c1coc2ccccc2c1=O
Given back: 8.22

Asked: Look up and report measured inhibition for this entry: C=CCCCCCCCCC(=O)N1CCN(c2cc3c(cc2F)c(=O)c(C(=O)O)cn3CC)CC1
Given back: 11.3

Asked: Annotate the compound CCn1cc(C(=O)O)c(=O)c2cc(F)c(N3CCN(S(=O)(=O)c4ccc(Br)cc4)CC3)cc21 with its measured inhibition.
Given back: 3.63

Asked: Annotate the compound c1ccc(Nc2nc(NCC3CCCO3)c3ccccc3n2)cc1 (configuration not stated) with its measured inhibition.
Given back: -1.89

Asked: // Input: Oc1ccc(Nc2nc(NCC3CCCO3)c3ccccc3n2)cc1 (configuration not stated) . Output its inhibition only.
Given back: -10.2

Asked: Given CCn1cc(C(=O)O)c(=O)c2cc(F)c(N3CCN(C(=S)NC(=O)c4cc(OC)cc(OC)c4)CC3)cc21 , respond with its inhibition.
Given back: 23.2

Asked: Look up inhibition of COc1ccc(Nc2nc(NCC3CCCO3)c3ccccc3n2)c(OC)c1 (configuration not stated) and report it.
Given back: 0.13

Asked: Look up and state reported inhibition for CCCCOc1ccc(CSC(=N)N)cc1Cl
Given back: 0.89

Asked: Read off the recorded inhibition for CC[n+]1ccccc1/C=C/c1ccc(N(C)C)cc1
Given back: -19.2

Asked: // fetch inhibition given entry O=C(O)Cn1c(O)c(C2=c3ccccc3=NC2=O)sc1=O
Given back: 3.25

Asked: Let me know recorded inhibition for C[n+]1c(/C=C/c2ccc(O)cc2)ccc2ccccc21 , thanks.
Given back: 18.4

Asked: Supply measured inhibition of Oc1ccccc1Nc1nc(NCC2CCCO2)c2ccccc2n1 (configuration not stated) in your reply.
Given back: 13.1

Asked: For the compound CCn1cc(C(=O)NCc2ccccc2)c(=O)c2cc(F)c(N3CCN(C(=O)c4ccco4)CC3)cc21 , give its reported inhibition.
Given back: 6.24

Value source: PubChem BioAssay AID1863
